Molecular target: Human Fc (human)
Assay: ELISA, negative control
Label condition met when optical density < 0.3 OD; otherwise condition not met.

| binder | class assignment |
| --- | --- |
| 374_D08 (antibody, V domains shown) VH: EVQLLESGGGLVQPGGSLRLSCAASGFTFDSYGMNWVRQAPGKGLEWVSGINYNSGYTGYADSVKGRFTISRDNSKNTLYLQMNSLRAEDTAVYYCARSANWHDTHLDYWGQGTLVTVSS VL: DIQMTQSPSSLSASVGDRVTITCRASQSILTYLNWYQQKPGKAPKLLIYAATSRHSGVPSRFSGSGSGTDFTLTISSLQPEDFATYYCQQSYESPLTFGGGTKVEIK | condition met |
| 369_H05 (antibody, V domains shown) VH: EVQLLESGGGLVQPGGSLRLSCAASGFTFSSYGMNWVRQAPGKGLEWVANINYNGGYTGYADSVKGRFTISRDNSKNTLYLQMNSLRAEDTAVYYCARSANWHDTALDYWGQGTLVTVSS VL: DIQMTQSPSSLSASVGDRVTITCRASQSIVSYVNWYQQKPGKAPKLLIYAATSRASGVPSRFSGSGSGTDFTLTISSLQPEDFATYYCQQSYSNPLTFGGGTKVEIK | condition not met |
| 368_G01 (antibody, V domains shown) VH: EVQLLESGGGLVQPGGSLRLSCAASGFTFSDYGMHWVRQAPGKGLEWVASINYNSGYTSYADSVKGRFTISRDNSKNTLYLQMNSLRAEDTAVYYCARSANWHDTALDYWGQGTLVTVSS VL: DIQMTQSPSSLSASVGDRVTITCRASQSILTYLNWYQQKPGKAPKLVIYAATSRASGVPSRFSGSGSGTDFTLTISSLQPEDFATYYCQQSYNLPLTFGGGTKVEIK | condition not met |
| 367_D10 (antibody, V domains shown) VH: EVQLLESGGGLVQPGGSLRLSCAASGFTFDSYGMNWVRQAPGKGLEWVSNINYNGGYTSYADSVKGRFTISRDNSKNTLYLQMNSLRAEDTAVYYCARSANWHDTALDYWGQGTLVTVSS VL: DIQMTQSPSSLSASVGDRVTITCRASQSIISYLNWYQQKPGKAPKLVIYAATSRASGVPSRFSGSGSGTDFTLTISSLQPEDFATYYCQQSYDTPLTFGGGTKVEIK | condition met |
| 368_A01 (antibody, V domains shown) VH: EVQLLESGGGLVQPGGSLRLSCAASGFTFSSYGMNWVRQAPGKGLEWVSNINYNGGYTSYADSVKGRFTISRDNSKNTLYLQMNSLRAEDTAVYYCARSANWHDTALDYWGQGTLVTVSS VL: DIQMTQSPSSLSASVGDRVTITCRASQSIISYLNWYQQKPGKAPKLLIYAATSRHSGVPSRFSGSGSGTDFTLTISSLQPEDFATYYCQQSYDNPLTFGGGTKVEIK | condition not met |
| 369_A02 (antibody, V domains shown) VH: EVQLLESGGGLVQPGGSLRLSCAASGFTFSSYSMNWVRQAPGKGLEWVAGINYNSGYTGYADSVKGRFTISRDNSKNTLYLQMNSLRAEDTAVYYCARSANWHDTHLDYWGQGTLVTVSS VL: DIQMTQSPSSLSASVGDRVTITCRASQSILSYVNWYQQKPGKAPKLLIYAATSRASGVPSRFSGSGSGTDFTLTISSLQPEDFATYYCQQSYDLPLTFGGGTKVEIK | condition not met |
| 369_C02 (antibody, V domains shown) VH: EVQLLESGGGLVQPGGSLRLSCAASGFTFDSYSMNWVRQAPGKGLEWVSNINYNGGYKSYADSVKGRFTISRDNSKNTLYLQMNSLRAEDTAVYYCARSANWHDTALDYWGQGTLVTVSS VL: DIQMTQSPSSLSASVGDRVTITCRASQSILTYLNWYQQKPGKAPKLVIYAATSRASGVPSRFSGSGSGTDFTLTISSLQPEDFATYYCQQSYELPLTFGGGTKVEIK | condition not met |
| 372_F08 (antibody, V domains shown) VH: EVQLLESGGGLVQPGGSLRLSCAASGFTFSDYSMNWVRQAPGKGLEWVSNINYNSGYTGYADSVKGRFTISRDNSKNTLYLQMNSLRAEDTAVYYCARSANWHDTALDYWGQGTLVTVSS VL: DIQMTQSPSSLSASVGDRVTITCRASQSILTYVNWYQQKPGKAPKLVIYAATSRASGVPSRFSGSGSGTDFTLTISSLQPEDFATYYCQQSYDTPLTFGGGTKVEIK | condition not met |
| 367_E04 (antibody, V domains shown) VH: EVQLLESGGGLVQPGGSLRLSCAASGFTFSDYSMNWVRQAPGKGLEWVSSINYNGGYKGYADSVKGRFTISRDNSKNTLYLQMNSLRAEDTAVYYCARSANWHDTHLDYWGQGTLVTVSS VL: DIQMTQSPSSLSASVGDRVTITCRASQSILSYLNWYQQKPGKAPKLLIYAATSRASGVPSRFSGSGSGTDFTLTISSLQPEDFATYYCQQSYESPLTFGGGTKVEIK | condition met |
